assay: Rat gastric mucosa injury
study_conditions: gastric mucosa, po
observable: NOAEL

For the molecule shown here, CC(C(=O)OCCCCO[N+](=O)[O-])c1cccc(C(=O)c2ccccc2)c1 (stereo not shown) , give the reported NOAEL. ≥ 30 mg/kg

---

assay: Rat gastric mucosa injury
study_conditions: in vivo, po
observable: NOAEL

NOAEL for CC(C(=O)OCCCCO[N+](=O)[O-])c1ccc(-c2ccccc2)c(F)c1 (stereo not shown) ? ≥ 30 mg/kg
